TARGET_ENTITY: T1, MUC1 on HCT116/MUC1 cells (UniProt P15941 24-1255, limits assumed)
T1 construct: whole, on cells; also called MUC1 overexpressed cell line
TEST: FACS titration, HCT116/MUC1 cells, antibody at 62.5 nM
As shown below, each of these binders has a reported geometric mean value.
ASSAY_METRIC: geometric mean

BINDER	READING
VH4 + VL1 (antibody, V domains shown, Humanized IgG expressed in HEK293; also called humanized antibody VH4+VL1) VH: QVQLVQSGAEVKKPGATVKISCKVSGYAFSNFWMNWVQQAPGKGLEWMGQIYPGDGDTNYNGKFKGRVTITADTSTDTAYMELSSLRSEDTAVYYCARSYYRSAWFAYWGQGTLVTVSR VL: EIVLTQSPDFQSVTPKEKVTITCRASQSIGTSIHWYQQKPDQSPKLLIKYASESISGVPSRFSGSGSGTDFTLTINSLEAEDAATYYCQQSNNWPLTFGQGTKVEIK	188
VH3 + VL1 (antibody, V domains shown, Humanized IgG expressed in HEK293; also called humanized antibody VH3+VL1) VH: QVQLVQSGAEVKKPGASVKVSCKASGYAFSNFWMNWVRQAPGQGLEWMGQIYPGDGDTNYNGKFKGRVTMTRDTSISTAYMELSRLRSDDTAVYYCARSYYRSAWFAYWGQGTLVTVSS VL: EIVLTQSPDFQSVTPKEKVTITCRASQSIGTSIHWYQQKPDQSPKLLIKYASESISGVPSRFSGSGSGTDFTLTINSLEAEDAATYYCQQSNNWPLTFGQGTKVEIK	263
VH2 + VL4 (antibody, V domains shown, Humanized IgG expressed in HEK293; also called humanized antibody VH2+VL4) VH: QVQLVQSGAEVKKPGASVKVSCKASGYAFSNFWMNWVRQAPGQGLEWMGQIYPGDGDTNYNGKFKGRVTMTRDTSTSTVYMELSSLRSEDTAVYYCARSYYRSAWFAYWGQGTLVTVSS VL: AIQLTQSPSSLSASVGDRVTITCRASQSIGTSIHWYQQKPGKAPKLLIYYASESISGVPSRFSGSGSGTDFTLTISSLQPEDFATYYCQQSNNWPLTFGGGTKVEIK	161
VH2 + VL3 (antibody, V domains shown, Humanized IgG expressed in HEK293; also called humanized antibody VH2+VL3) VH: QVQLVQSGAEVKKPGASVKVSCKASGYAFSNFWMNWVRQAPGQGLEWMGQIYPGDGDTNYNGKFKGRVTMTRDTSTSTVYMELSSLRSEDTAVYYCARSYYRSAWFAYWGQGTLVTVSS VL: EIVLTQSPATLSLSPGERATLSCRASQSIGTSIHWYQQKPGQAPRLLIYYASESISGIPARFSGSGSGTDFTLTISSLEPEDFAVYYCQQSNNWPLTFGGGTKVEIK	124
VH5 + VL3 (antibody, V domains shown, Humanized IgG expressed in HEK293; also called humanized antibody VH5+VL3) VH: EVQLVQSGAEVKKPGESLKISCKGSGYAFSNFWMNWVRQMPGKGLEWMGQIYPGDGDTNYNGKFKGQVTISADKSISTAYLQWSSLKASDTAMYYCARSYYRSAWFAYWGQGTLVTVSL VL: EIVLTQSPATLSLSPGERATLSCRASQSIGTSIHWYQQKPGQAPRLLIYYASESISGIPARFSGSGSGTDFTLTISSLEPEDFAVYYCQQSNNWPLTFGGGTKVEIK	141
VH5 + VL4 (antibody, V domains shown, Humanized IgG expressed in HEK293; also called humanized antibody VH5+VL4) VH: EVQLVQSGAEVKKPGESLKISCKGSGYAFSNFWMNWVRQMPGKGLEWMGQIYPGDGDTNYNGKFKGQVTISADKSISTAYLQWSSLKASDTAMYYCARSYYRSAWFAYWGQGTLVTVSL VL: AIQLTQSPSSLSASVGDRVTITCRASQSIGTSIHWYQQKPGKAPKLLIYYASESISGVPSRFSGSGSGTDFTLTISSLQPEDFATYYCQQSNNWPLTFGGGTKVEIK	190
VH1 + VL1 (antibody, V domains shown, Humanized IgG expressed in HEK293; also called humanized antibody VH1+VL1) VH: QVQLVQSGAEVKKPGSSVKVSCKASGYAFSNFWMNWVRQAPGQGLEWMGQIYPGDGDTNYNGKFKGRVTITADKSTSTAYMELSSLRSEDTAVYYCARSYYRSAWFAYWGQGTLVTVSS VL: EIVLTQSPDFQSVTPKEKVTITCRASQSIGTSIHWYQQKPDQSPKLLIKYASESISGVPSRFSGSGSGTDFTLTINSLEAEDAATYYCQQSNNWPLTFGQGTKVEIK	290
VH5 + VL1 (antibody, V domains shown, Humanized IgG expressed in HEK293; also called humanized antibody VH5+VL1) VH: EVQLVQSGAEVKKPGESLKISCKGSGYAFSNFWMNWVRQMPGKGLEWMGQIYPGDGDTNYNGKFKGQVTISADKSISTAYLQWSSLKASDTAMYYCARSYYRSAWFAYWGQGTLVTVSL VL: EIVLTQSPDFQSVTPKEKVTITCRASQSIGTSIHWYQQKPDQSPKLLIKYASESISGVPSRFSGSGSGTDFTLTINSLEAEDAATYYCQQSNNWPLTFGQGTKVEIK	291
VH3 + VL4 (antibody, V domains shown, Humanized IgG expressed in HEK293; also called humanized antibody VH3+VL4) VH: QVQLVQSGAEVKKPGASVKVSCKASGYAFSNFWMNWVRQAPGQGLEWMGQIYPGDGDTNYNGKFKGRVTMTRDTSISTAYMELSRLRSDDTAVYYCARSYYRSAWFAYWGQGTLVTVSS VL: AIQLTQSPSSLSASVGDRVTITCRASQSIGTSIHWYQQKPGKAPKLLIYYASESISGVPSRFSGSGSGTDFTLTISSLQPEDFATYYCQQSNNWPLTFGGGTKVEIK	171
